Test system: UACC-257 melanoma
Experiment: NCI-60 one-dose screen, 48 h (100 = growth as untreated, 0 = no growth, -100 = all killed)
Details: 10 µM
Compounds without any hit were thinned out: in the full panel of roughly 83,000, 20% have a hit. Calls of active or inactive are those of the source. Rule for the calls: active = growth percent below 10; inactive = the rest.
Quick reference for growth among some compounds

As a guide, the following entries are already answered.
COc1ccccc1-n1c(-c2sc(NC(C)=O)nc2C)n[nH]c1=S = 114% (inactive)
CCCCCC(=O)O[C@]1(C(C)=O)CCC2C3CCC4=CC(=O)CC[C@]4(C)C3CC[C@@]21C (stereo partly drawn) = 14% (inactive)
C[C@H]1[C@H](OC(=O)CCC(=O)O)O[C@@H]2O[C@]3(C)CC[C@H]4[C@H](C)CC[C@@H]1[C@@]24OO3 = 50.8% (inactive)
CC(C)c1cc(N=O)cc(C(C)C)c1O = 94.8% (inactive)
CCOc1ccccc1/C=N\N=C\c1ccccc1O = 107% (inactive)
Cc1c[nH]c(=O)n(Cc2nnc(CCC(=O)c3nc4ccccc4[nH]3)o2)c1=O = 81.4% (inactive)
C=CCNCCN1C(=O)c2ccc3c4c(ccc(c24)C1=O)C(=O)N(CCNCC=C)C3=O = -90.3% (active)
NC(N)=N/N=C(\N=Nc1ccccc1)c1ccc(Cl)cc1 = 70.9% (inactive)

Quick note, growth for COc1cc(C2CC(c3ccc4c(c3)OCO4)=NN2c2ccccc2)cc(OC)c1OC (stereo not drawn) landed at 90.3% (inactive)

Quick note, growth for COc1ccccc1/C=N\N/C(N)=N\N=C\c1ccccc1OC landed at 46.3% (inactive)

Quick note, growth for O=C(CCc1nnc2sc(-c3cc(O)c(O)c(O)c3)nn12)c1nc2ccccc2[nH]1 landed at 110% (inactive)

Quick note, growth for CCN(CC)CCCC(C)N=C(C1=C(C(=NC(C)CCCN(CC)CC)c2cccc(OC)c2)C(=O)NC1=O)c1cccc(OC)c1 (stereo not drawn) landed at -95.2% (active)

Quick note, growth for CC(C)(C)c1ccc(S(=O)(=O)N[C@H]2CC[C@H]3[C@@H]4CCc5cc(O)ccc5[C@H]4CC[C@]23C)cc1 landed at 68.7% (inactive)
